# tested.target: GlyT1 transporter (Homo sapiens, UniProt P48067)
# Construct: endogenously expressing the GlyT1 transporter
# Sequence (P48067 whole entry): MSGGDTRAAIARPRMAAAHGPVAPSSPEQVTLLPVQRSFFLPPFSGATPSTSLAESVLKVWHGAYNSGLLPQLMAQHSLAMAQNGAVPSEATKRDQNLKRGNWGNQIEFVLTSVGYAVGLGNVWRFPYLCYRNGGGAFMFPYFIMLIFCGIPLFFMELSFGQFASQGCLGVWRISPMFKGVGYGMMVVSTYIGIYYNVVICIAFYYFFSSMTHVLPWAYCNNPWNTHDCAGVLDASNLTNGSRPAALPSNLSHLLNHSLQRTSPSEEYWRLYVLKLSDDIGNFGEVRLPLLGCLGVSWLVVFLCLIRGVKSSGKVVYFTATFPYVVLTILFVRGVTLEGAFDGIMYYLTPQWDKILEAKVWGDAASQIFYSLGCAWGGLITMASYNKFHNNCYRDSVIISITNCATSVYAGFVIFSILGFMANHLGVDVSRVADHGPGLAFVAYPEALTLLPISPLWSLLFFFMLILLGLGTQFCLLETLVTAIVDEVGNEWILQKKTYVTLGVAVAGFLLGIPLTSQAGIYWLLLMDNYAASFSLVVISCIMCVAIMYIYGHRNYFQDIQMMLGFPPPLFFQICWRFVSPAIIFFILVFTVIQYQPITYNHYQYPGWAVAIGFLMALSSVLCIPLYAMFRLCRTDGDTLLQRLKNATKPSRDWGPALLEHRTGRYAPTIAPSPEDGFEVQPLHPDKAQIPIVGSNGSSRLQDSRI
# assay.name: GlyT1 assay: 3H-glycine uptake into SK-N-MC cells (Cytostar-T format)
# condition.parameters: glycine uptake in human SK-N-MC cells endogenously expressing GlyT1; 500 nM glycine, 1% DMSO, signal recorded over 60 min
IC50 reference

[
  {
    "compound": "C[C@H](Oc1ccc(S(C)(=O)=O)cc1C(=O)N1CC2CC2(c2cc(C(F)(F)F)on2)C1)C(F)(F)F (single isomer, unassigned) [Example 48]",
    "IC50 / nM": 886
  },
  {
    "compound": "C[C@@H](Oc1ccc(S(C)(=O)=O)cc1C(=O)N1CC2CC2(c2cc(C(F)(F)F)on2)C1)C(F)(F)F (single isomer, unassigned) [Example 51]",
    "IC50 / nM": 461
  },
  {
    "compound": "C[C@H](Oc1ccc(S(C)(=O)=O)cc1C(=O)N1CC2CC2(c2noc(C3CC(F)(F)C3)n2)C1)C(F)(F)F (single isomer, unassigned) [Example 59]",
    "IC50 / nM": 8
  }
]

---

log10 of IC50 reference
# tested.target: GlyT1 transporter (Homo sapiens, UniProt P48067)
# Construct: endogenously expressing the GlyT1 transporter
# assay.name: GlyT1 assay: 3H-glycine uptake into SK-N-MC cells (Cytostar-T format)
# condition.parameters: glycine uptake in human SK-N-MC cells endogenously expressing GlyT1; 500 nM glycine, 1% DMSO, signal recorded over 60 min
parameter: log10 of IC50 (log10 of the value in nM)

[
  {
    "compound": "C[C@H](Oc1ccc(S(C)(=O)=O)cc1C(=O)N1CC2CC2(c2cc(C(F)(F)F)on2)C1)C(F)(F)F (mixture of isomers) [Example 46]",
    "log10 of IC50": 1.46
  },
  {
    "compound": "C[C@H](Oc1ccc(S(C)(=O)=O)cc1C(=O)N1CC2CC2(c2nccc(C(F)(F)F)n2)C1)C(F)(F)F (single isomer, unassigned) [Example 16]",
    "log10 of IC50": 1.00
  },
  {
    "compound": "Cc1c(C23CC2CN(C(=O)c2cc(S(C)(=O)=O)ccc2O[C@H](C)C(F)(F)F)C3)noc1C(F)(F)F (single isomer, unassigned) [Example 161]",
    "log10 of IC50": 0.95
  },
  {
    "compound": "C[C@H](Oc1ccc(S(C)(=O)=O)cc1C(=O)N1CC2(C)CC2(c2noc(C(F)(F)F)n2)C1)C(F)(F)F (single isomer, unassigned) [Example 158]",
    "log10 of IC50": 1.93
  },
  {
    "compound": "C[C@@H](Oc1ccc(S(C)(=O)=O)cc1C(=O)N1CC2CC2(c2ncc(C(F)(F)F)o2)C1)C(F)(F)F (single isomer, unassigned) [Example 130]",
    "log10 of IC50": 0.48
  },
  {
    "compound": "COC1(c2nc(C34CC3CN(C(=O)c3cc(S(C)(=O)=O)ccc3O[C@H](C)C(F)(F)F)C4)no2)CC1 (mixture of isomers) [Example 119]",
    "log10 of IC50": 1.04
  }
]

---

pIC50 reference
# tested.target: GlyT1 transporter (Homo sapiens)
# Construct: endogenously expressing the GlyT1 transporter
# assay.name: GlyT1 assay: 3H-glycine uptake into SK-N-MC cells (Cytostar-T format)
# condition.parameters: glycine uptake in human SK-N-MC cells endogenously expressing GlyT1; 500 nM glycine, 1% DMSO, signal recorded over 60 min
pIC50: −log10 of the molar value.
parameter: pIC50

[
  {
    "compound": "C[C@@H](Oc1ccc(S(C)(=O)=O)cc1C(=O)N1CC2CC2(c2noc(C(F)(F)F)n2)C1)C(F)(F)F (mixture of isomers) [Example 58]",
    "tested.target": "GlyT1 transporter (Homo sapiens)",
    "test.value": 7.77
  },
  {
    "compound": "C[C@@H](Oc1ccc(S(C)(=O)=O)cc1C(=O)N1CC2CC2(c2coc(C3CC3)n2)C1)C(F)(F)F (single isomer, unassigned) [Example 82]",
    "tested.target": "GlyT1 transporter (Homo sapiens)",
    "test.value": 6.11
  },
  {
    "compound": "C[C@@H](Oc1ccc(S(C)(=O)=O)cc1C(=O)N1CC2CC2(c2noc(C3CC3(F)F)n2)C1)C(F)(F)F (mixture of isomers)",
    "tested.target": "GlyT1 transporter (Homo sapiens)",
    "test.value": 8.40
  },
  {
    "compound": "COC1(c2nc(C34CC3CN(C(=O)c3cc(S(C)(=O)=O)ccc3O[C@H](C)C(F)(F)F)C4)no2)CC1 (single isomer, unassigned) [Example 121]",
    "tested.target": "GlyT1 transporter (Homo sapiens)",
    "test.value": 6.46
  },
  {
    "compound": "C[C@H](Oc1ccc(S(C)(=O)=O)cc1C(=O)N1CC2CC2(c2nocc2C(F)(F)F)C1)C(F)(F)F (mixture of isomers)",
    "tested.target": "GlyT1 transporter (Homo sapiens)",
    "test.value": 7.35
  },
  {
    "compound": "C[C@@H](Oc1ccc(S(C)(=O)=O)cc1C(=O)N1CC2CC2(c2coc(C3CC3)n2)C1)C(F)(F)F (single isomer, unassigned) [Example 83]",
    "tested.target": "GlyT1 transporter (Homo sapiens)",
    "test.value": 8.52
  }
]
